# assayComment: qHTS of pediatric cancer cell lines to identify multiple opportunities for drug repurposing: Primary screen for Rh41 cells (AID 1347108); note: nearly all actives have a fitted effect of over 70% in size
# conditionSet: Rh41 rhabdomyosarcoma viability, CellTiter-Glo luminescence, 48 h; series mostly up to 46 µM
Records with an inconclusive call do not appear. The source made the active and inactive calls. Calls come from the whole dose curve; as a rule, active = well fitted cell-killing curve with a large enough effect; inconclusive = small, poorly fitted or top-dose-only effect; inactive = no such curve, though single readings can be large or run the other way.
Assign a class; possible classes are active, inactive

Q) What did the test return for `C[C@]12CCC3=C4CCC(=O)C=C4CC[C@@H]3[C@H]1CC[C@@]2(O)CC#N` ?
A) inactive

Q) What did the test return for CC(NCCc1ccc(O)cc1)C(O)c1ccc(O)cc1 (stereo unspecified) ?
A) inactive

Q) What did the test return for `CCNC(=O)c1noc(-c2cc(C(C)C)c(O)cc2O)c1-c1ccc(CN2CCOCC2)cc1` ?
A) active

Q) What did the test return for `COc1ccc(Cn2ccc3ccc(C(=O)NO)cc32)cc1` ?
A) inactive

Q) What did the test return for `CC(C)(OCc1nn(Cc2ccccc2)c2ccccc12)C(=O)O` ?
A) inactive

Q) What did the test return for `COc1cc2nccc(Oc3ccc(NC(=O)Nc4cc(C)on4)c(Cl)c3)c2cc1OC` ?
A) active

Q) What did the test return for `CC[C@H](C)C(=O)O[C@H]1C[C@H](O)C=C2C=C[C@H](C)[C@H](CC[C@@H](O)C[C@@H](O)CC(=O)O)[C@H]21` ?
A) inactive

Q) What did the test return for `Cc1nc(NC(=O)N2CCC[C@@H]2C(N)=O)sc1-c1csc(C(C)(C)C)n1` ?
A) active

Q) What did the test return for `O=C(CC12CC3CC(CC(C3)C1)C2)Nc1cccc2nc(NCCNCCO)ccc12` ?
A) inactive

Q) What did the test return for `COc1ccc(-c2ccc3ncc4c(c3c2)n(-c2ccc(N3CCNCC3)c(C(F)(F)F)c2)c(=O)n4C)cn1` ?
A) active

Q) What did the test return for `Nc1ncnc2c1ncn2[C@@H]1O[C@H](CO)[C@@H](O)[C@@H]1O` ?
A) active

Q) What did the test return for `NC1(C(=O)N[C@@H](CCO)c2ccc(Cl)cc2)CCN(c2ncnc3[nH]ccc23)CC1` ?
A) active

Q) What did the test return for `CC(=O)Nc1cccc(-n2c(=O)n(C3CC3)c(=O)c3c(Nc4ccc(I)cc4F)n(C)c(=O)c(C)c32)c1` ?
A) inactive

Q) What did the test return for `CC(C)Oc1cc(Nc2nc(N[C@@H](C)c3ccc(F)cn3)ncc2Cl)[nH]n1` ?
A) active

Q) What did the test return for CC1(C)CC(=O)c2c(C(F)(F)F)nn(-c3ccc(C(N)=O)c(NC4CCC(O)CC4)c3)c2C1 (stereo unspecified) ?
A) active

Q) What did the test return for `Cc1ccc(NC(=O)c2ccc(CN3CCN(C)CC3)cc2)cc1Nc1nc(-c2cccnc2)cs1` ?
A) inactive

Q) What did the test return for `COc1cc(F)c(C(C)C)cc1-c1ccc(C(F)(F)F)cc1CN1C(=O)O[C@H](c2cc(C(F)(F)F)cc(C(F)(F)F)c2)[C@@H]1C` ?
A) inactive

Q) What did the test return for `CCCCCCCCCCCCCC(=O)N[C@H](CO)[C@H](O)c1ccc([N+](=O)[O-])cc1` ?
A) inactive

Q) What did the test return for `COc1ccc2nc3cc(Cl)ccc3c(Nc3cc(CN4CCCC4)c(O)c(CN4CCCC4)c3)c2n1` ?
A) inactive

Q) What did the test return for CC=C1C2C=C(C)CC1(N)c1ccc(=O)[nH]c1C2 (stereo unspecified) ?
A) inactive

Q) What did the test return for Cc1ccccc1C(C(=O)NC1CCCCC1)N(C(=O)CNc1ccc(C#N)cc1)c1cccc(F)c1 (stereo unspecified) ?
A) inactive

Q) What did the test return for CCCCN(CCCC)CC(O)c1cc(Cl)cc2c1-c1ccc(Cl)cc1C2=Cc1ccc(Cl)cc1 (stereo unspecified) ?
A) inactive

Q) What did the test return for `CCN1C[C@H](C)n2c(c(O)c3c(=O)n(Cc4ccc(F)c(Cl)c4)nc(C(=O)NC)c32)C1=O` ?
A) inactive

Q) What did the test return for `CCOC(=O)[C@@H](N)CCC(=O)N[C@@H](CSCc1ccccc1)C(=O)N[C@@H](C(=O)OCC)c1ccccc1` ?
A) inactive

Q) What did the test return for `CN(C)CCOc1ccc(-c2nc(-c3ccc4c(c3)CCC4=NO)c(-c3ccncc3)[nH]2)cc1` ?
A) active

Q) What did the test return for O=C1C(CCC(O)c2ccc(F)cc2)C(c2ccc(O)cc2)N1c1ccc(F)cc1 (stereo unspecified) ?
A) inactive

Q) What did the test return for `O=C(Nc1ncc(SCCN2CCCC2)s1)[C@]1(c2ccc(S(=O)(=O)C3CC3)cc2)C[C@@H]1C1CCCCC1` ?
A) active

Q) What did the test return for CC1CNc2c(cccc2S(=O)(=O)N[C@@H](CCCN=C(N)N)C(=O)N2CC[C@@H](C)C[C@@H]2C(=O)O)C1 (stereo partly specified) ?
A) inactive

Q) What did the test return for `O=C(O)c1nc(=O)[nH]c(=O)[nH]1` ?
A) inactive

Q) What did the test return for `OCCn1cc(-c2ccc3c(c2)CCC3=NO)c(-c2ccncc2)n1` ?
A) inactive

Q) What did the test return for `CN1CCN(c2ncc(-c3cc(Cl)cc(Cl)c3Cl)c(N)n2)CC1` ?
A) inactive

Q) What did the test return for COc1ccnc(CS(=O)c2nc3ccc(OC(F)F)cc3[nH]2)c1OC (stereo unspecified) ?
A) inactive

Q) What did the test return for `C[C@@H]1C[C@H]2[C@@H]3CCC4=CC(=O)C=C[C@]4(C)[C@@]3(F)[C@@H](O)C[C@]2(C)[C@@]1(O)C(=O)CO` ?
A) inactive

Q) What did the test return for `CN(CC=CC#CC(C)(C)C)Cc1cccc2ccccc12` ?
A) inactive

Q) What did the test return for `CC[C@H](C=C[C@@H](C)[C@H]1CC[C@H]2[C@@H]3CC=C4C[C@@H](O)CC[C@]4(C)[C@@H]3CC[C@]12C)C(C)C` ?
A) inactive

Q) What did the test return for `CC[C@H](NC(=O)[C@H](C)NC)C(=O)N1C[C@@H](O)C[C@H]1Cc1c(-c2[nH]c3cc(F)ccc3c2C[C@H]2C[C@H](O)CN2C(=O)[C@H](CC)NC(=O)[C@H](C)NC)[nH]c2cc(F)ccc12` ?
A) inactive
